Target: T1, recombinant FAP protein (BioLegend), biotinylated (Homo sapiens (Human), UniProt Q12884 26-760, Biotinylated (sites not given) for loading on streptavidin sensors. Any vendor tag is not stated in the passages shown.)
T1 construct: Loaded on streptavidin sensors for BLI; also called biotinylated FAP
T1 sequence: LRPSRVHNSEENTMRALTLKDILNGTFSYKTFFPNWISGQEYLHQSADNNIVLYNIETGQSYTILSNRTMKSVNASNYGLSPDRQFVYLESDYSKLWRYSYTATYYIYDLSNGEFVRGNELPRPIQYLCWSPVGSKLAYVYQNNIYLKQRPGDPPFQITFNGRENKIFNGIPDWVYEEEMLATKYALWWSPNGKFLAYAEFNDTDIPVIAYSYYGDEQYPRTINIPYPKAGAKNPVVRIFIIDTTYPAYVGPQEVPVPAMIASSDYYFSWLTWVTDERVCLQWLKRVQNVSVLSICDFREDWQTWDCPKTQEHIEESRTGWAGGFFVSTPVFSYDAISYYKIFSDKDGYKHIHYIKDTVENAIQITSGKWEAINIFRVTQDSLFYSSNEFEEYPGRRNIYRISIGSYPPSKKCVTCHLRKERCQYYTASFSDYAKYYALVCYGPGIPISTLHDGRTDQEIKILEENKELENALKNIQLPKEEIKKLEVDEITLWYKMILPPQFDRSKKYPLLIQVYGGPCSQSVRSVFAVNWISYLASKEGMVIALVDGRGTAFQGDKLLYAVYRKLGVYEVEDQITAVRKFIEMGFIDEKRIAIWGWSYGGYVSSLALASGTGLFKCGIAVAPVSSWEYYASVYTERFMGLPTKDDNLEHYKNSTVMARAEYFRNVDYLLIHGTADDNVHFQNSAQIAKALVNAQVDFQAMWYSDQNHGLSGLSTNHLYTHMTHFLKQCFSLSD
Assay: BLI (Octet RED96), biotinylated FAP on streptavidin sensors
Please go through the items and note down their pKd.
Give bare numbers, as −log10 of the molar value.

Field: example entries. Status: answers known.
Could you share which pKd value was measured for P-1929: 3PE42_M31H (VHH, also called pET28 PelB-3PE42_M42H) VHH: QVQLQESGGGLVQPGESLRLSCAVSGSTSSHNAMAWYRQAPGKRRELVAGISGGGATNYPDSVKGRFTISRDNAKNTVYLQMSSLKPEDTAVYYCNLWPPRASPGGGVYWGQGTQVTVSS ?
8.95

Could you share which pKd value was measured for P-1918: 2PE14_N32S (VHH, also called pET28 PelB-2PE14_N32S) VHH: QVQLQESGGGLVQPGGSLRLSCAASGSTFSISAVAWYRQAPGKRRELVAGISGGGVTNYPDSVKGRFTISRDNAKNTVYLQMSSLKPEDTAVYYCNLWPPRASPGGRVYWGQGTQVTVSS ?
6.25

Could you share which pKd value was measured for P-1939: 3PE42_M31V (VHH, also called pET28 PelB-3PE42_M42V) VHH: QVQLQESGGGLVQPGESLRLSCAVSGSTSSVNAMAWYRQAPGKRRELVAGISGGGATNYPDSVKGRFTISRDNAKNTVYLQMSSLKPEDTAVYYCNLWPPRASPGGGVYWGQGTQVTVSS ?
8.61

Consider the additional binder presented here.
Could you share which pKd value was measured for P-1933: 3PE42_M31N (VHH, also called pET28 PelB-3PE42_M42N) VHH: QVQLQESGGGLVQPGESLRLSCAVSGSTSSNNAMAWYRQAPGKRRELVAGISGGGATNYPDSVKGRFTISRDNAKNTVYLQMSSLKPEDTAVYYCNLWPPRASPGGGVYWGQGTQVTVSS ?
9.25

Sourced from patent US20220332844A1
